MEASURED_TARGET: Sodium- and chloride-dependent GABA transporter 1 (Mus musculus) (UniProt P31648)
PROCEDURE_TEXT: Displacement of [3H]NO711 from mouse GAT1 expressed in HEK293 cells at 100 uM measured after 40 mins of incubation by LC-ESI-MS-MS method
Type: cell-based
CONDITION_NOTES: in the assay text read “NO711” for “[3H]NO711”
QUANTITY: residual activity
# do not omit the unit; it follows the number

Answered examples (5):
Cc1ccsc1C(=CCCN(C)C(CCO)C(=O)NCc1ccc(F)cc1F)c1sccc1C (stereo unspecified)	71%
Cc1ccc(CNC(=O)C(CC(C)O)N(C)CCC=C(c2sccc2C)c2sccc2C)cc1 (stereo in doubt)	72%
CC(=O)NCCC(C(=O)NCc1ccccc1Cl)N(C)CCC=C(c1sccc1C)c1sccc1C (stereo unspecified)	68%
Cc1ccsc1C(=CCCN(C)C(CCO)C(=O)NC(C)c1ccccc1)c1sccc1C (stereo unspecified)	68%
Cc1ccsc1C(=CCCN(C)C(CC(C)O)C(=O)NCc1ccc(F)cc1)c1sccc1C (racemic; form 2)	70%

The compound Cc1ccsc1C(=CCCN(C)C(CCO)C(=O)NCc1ccc(F)cc1)c1sccc1C (stereo unspecified) on Sodium- and chloride-dependent GABA transporter 1 (Mus musculus) (UniProt P31648): residual activity was 70%

----------
MEASURED_TARGET: UniProtKB P31650
Sequence (P31650 whole entry): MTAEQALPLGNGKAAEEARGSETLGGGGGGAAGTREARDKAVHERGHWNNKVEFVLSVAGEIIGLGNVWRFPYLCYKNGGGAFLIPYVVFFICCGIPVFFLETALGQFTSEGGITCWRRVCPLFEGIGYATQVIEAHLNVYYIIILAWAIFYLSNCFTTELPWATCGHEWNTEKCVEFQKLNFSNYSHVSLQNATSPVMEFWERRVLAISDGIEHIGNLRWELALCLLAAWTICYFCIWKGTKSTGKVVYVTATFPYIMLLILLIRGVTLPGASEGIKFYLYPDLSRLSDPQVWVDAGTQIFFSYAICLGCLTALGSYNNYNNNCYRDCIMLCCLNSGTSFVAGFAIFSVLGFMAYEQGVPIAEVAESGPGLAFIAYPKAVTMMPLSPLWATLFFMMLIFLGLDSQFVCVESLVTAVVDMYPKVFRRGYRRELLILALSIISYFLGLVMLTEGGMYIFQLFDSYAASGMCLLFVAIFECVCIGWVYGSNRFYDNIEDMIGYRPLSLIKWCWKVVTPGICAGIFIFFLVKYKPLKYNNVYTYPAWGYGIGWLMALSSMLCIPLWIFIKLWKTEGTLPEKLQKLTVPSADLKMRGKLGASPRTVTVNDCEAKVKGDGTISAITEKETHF
PROCEDURE_TEXT: Inhibition of mouse GAT4 expressed in HEK293 cell line assessed as inhibition of [3H]GABA uptake measured after 35 mins by liquid scintillation method
Format: cell-based
Each entry below lists one item and its recorded IC50 value.

Memo: Cc1ccsc1C(=CCCN(C)C1CCc2onc(O)c2C1)c1sccc1C (stereo not given) , reported IC50: > 302 µM

// field: IC50; key: Cc1ccsc1C(=CCCN(C)C(CC(C)O)C(=O)NCc1ccc(F)cc1)c1sccc1C (racemic; form 1) ; value = 17.8 µM

For Cc1ccsc1C(=CCCN(C)C(CO)C(=O)NCc1ccc(Cl)cc1)c1sccc1C (stereo not given) the molecule record lists IC50 as 9.55 µM

The reported value for Cc1ccc(CNC(=O)C(CC(C)O)N(C)CCC=C(c2sccc2C)c2sccc2C)cc1 (stereo in doubt) in terms of IC50 is 7.08 µM

Entry under test: Cc1ccsc1C(=CCCN(C)C(CCN)C(=O)NCc1ccc(F)cc1)c1sccc1C (stereo not given) . Its IC50 was 7.59 µM

----------
Reported logP is given for each of the following molecules.
PROCEDURE_TEXT: Lipophilicity, logP of the compound by UPLC-MS method
Format: physicochemical
CONDITION_NOTES: octanol/water; read-out: logP
Respond numerically, and do not add a unit to the figure.

# example entries with known answers
Cc1ccsc1C(=CCCN(C)C(CCN)C(=O)NCc1ccc(Cl)cc1)c1sccc1C (stereo not drawn)	5.85
Cc1ccc(CNC(=O)C(CC(C)O)N(C)CCC=C(c2sccc2C)c2sccc2C)cc1 (stereo in doubt)	6.15

Please look at the following molecule next.
Consider Cc1ccsc1C(=CCCN(C)C(CCO)C(=O)NC(C)c1ccccc1)c1sccc1C (stereo not drawn) . Its measured logP is 6.1
